molecules and their reported bioavailability
- protocol_details: Pharmacokinetic profile after single po, ip or iv administration
- experimental_conditions: female, Balb/c, mouse, plasma, ip, 10 mg/kg
measurement_kind: bioavailability

cpd_smiles=CCN1C(=S)O/C(=C\c2ccc(-c3ccccc3OC)o2)C1=S result_value=~50%
cpd_smiles=CCN1C(=S)O/C(=C\c2ccc(-c3ccccc3)o2)C1=S result_value=~50%

* * *

compounds and their reported IC50
- System: lipid-enveloped viruses
- protocol_details: organism not typed
- Assay type: cell-based
- experimental_conditions: read-out: IC50 inhibition of infection of lipid-enveloped viruses
measurement_kind: IC50

compound="CCN1C(=S)O/C(=C\\c2ccc(-c3ccccc3OC)o2)C1=S [JL103]" target_of_assay="lipid-enveloped viruses" result_value="~0.005 µM"
compound="CCN1C(=S)O/C(=C\\c2ccc(-c3ccccc3)o2)C1=S [JL102]" target_of_assay="lipid-enveloped viruses" result_value="~0.04 µM"

* * *

- protocol_details: Absorption spectra of compounds in DMSO
- Type: physicochemical
- experimental_conditions: 100 μM in DMSO
measurement_kind: Abs Max (nm)

compound="CCN1C(=S)O/C(=C\\c2ccc(-c3cccc(OC)c3)o2)C1=S [JL117]" measurement_kind="Abs Max" value_units=nm result_value=504
compound="CCN1C(=S)N/C(=C\\c2ccc(-c3ccccc3)o2)C1=S [JL105]" measurement_kind="Abs Max" value_units=nm result_value=521
compound="CCN1C(=S)O/C(=C\\c2ccc(-c3ccc(OC)cc3)n2C)C1=S [JL119]" measurement_kind="Abs Max" value_units=nm result_value=551
compound="CCN1C(=S)O/C(=C\\c2ccc(-c3c(OC)cc(OC)cc3OC)o2)C1=S [JL122]" measurement_kind="Abs Max" value_units=nm result_value=547
compound="CCN1C(=O)S/C(=C\\c2ccc(-c3ccccc3)o2)C1=O [JL025, reference compound]" measurement_kind="Abs Max" value_units=nm result_value=405
compound="CCN1C(=S)O/C(=C\\c2ccc(-c3c(OC)cccc3OC)o2)C1=S [JL111]" measurement_kind="Abs Max" value_units=nm result_value=499
compound="CCN1C(=S)O/C(=C\\c2ccc(-c3ccc(N(C)C)cc3)n2C)C1=S [JL123]" measurement_kind="Abs Max" value_units=nm result_value=593
compound="CCN1C(=S)O/C(=C\\c2ccc(-c3ccccc3OC)o2)C1=S [JL103]" measurement_kind="Abs Max" value_units=nm result_value=516
compound="C=CCN1C(=O)/C(=C/c2ccc(-c3ccccc3)o2)SC1=S [LJ001, reference compound]" measurement_kind="Abs Max" value_units=nm result_value=457

* * *

- Test system: HSV
- protocol_details: Inhibition of HSV infection (Table 1)
- Assay type: cell-based, herpes simplex virus
- experimental_conditions: number of experiments in parentheses; read-out: IC50 ± STD (nM) (N = x) HSV
compounds and their reported IC50
measurement_kind: IC50 (nM)

compound="CCN1C(=S)O/C(=C\\c2ccc(-c3c(OC)cc(OC)cc3OC)o2)C1=S [JL122]" result_comparator== result_value=3
compound="CCN1C(=O)/C(=C/c2ccc(-c3ccccc3)o2)NC1=S [JL104]" result_comparator=> result_value=500000
compound="CCN1C(=S)O/C(=C\\c2ccc(-c3ccccc3OC)o2)C1=S [JL103]" result_comparator== result_value=2.3
compound="CCN1C(=S)O/C(=C\\c2ccc(-c3cccc(OC)c3)o2)C1=S [JL117]" result_comparator== result_value=20
compound="CCN1C(=S)O/C(=C\\c2ccc(-c3ccc(N(C)C)cc3)n2C)C1=S [JL123]" result_comparator== result_value=75

The origin of these recorded values is patent US9139575B2.
